B1: DnaJ homolog subfamily C member 5, residues 16 to 77; numbered along this chain, Q9H3Z4 (parent)
chain: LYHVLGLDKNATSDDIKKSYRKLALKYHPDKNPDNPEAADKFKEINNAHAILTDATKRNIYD

Variants of: B1
Test: abundance fitness (aPCA) (normalised: wild type 0, dead -1); higher = more abundant; growth selection in yeast, the domain comes from the species named
Details: Homo sapiens

[
  {
    "mutantDesignation": "F42A",
    "abundance fitness": -0.28
  },
  {
    "mutantDesignation": "L7Y",
    "abundance fitness": -1.01
  },
  {
    "mutantDesignation": "D14R",
    "abundance fitness": -0.359
  },
  {
    "mutantDesignation": "N59E",
    "abundance fitness": 0.152
  }
]
